assay: Solubility of SOL at different pH; type: physicochemical; conditions: pH 5.7, aqueous buffer
Assay endpoint: solubility

>>> obs_value("CC[C@H]1OC(=O)[C@@](C)(F)C(=O)[C@H](C)[C@@H](O[C@@H]2O[C@H](C)C[C@H](N(C)C)[C@H]2O)[C@](C)(OC)C[C@@H](C)C(=O)[C@H](C)[C@H]2N(CCCCn3cc(-c4cccc(N)c4)nn3)C(=O)O[C@]12C")
"68 mg/mL"
